Each item that follows carries a reported Dissociation amount (RU).
Molecular target: T1, human FSTL1 (construct not stated) (human, UniProt Q12841 21-308)
T1 construct: also called human FSTL1 antigen; FSTL1 (R&D Systems, Inc. Cat#1694-FN-050)
T1 sequence: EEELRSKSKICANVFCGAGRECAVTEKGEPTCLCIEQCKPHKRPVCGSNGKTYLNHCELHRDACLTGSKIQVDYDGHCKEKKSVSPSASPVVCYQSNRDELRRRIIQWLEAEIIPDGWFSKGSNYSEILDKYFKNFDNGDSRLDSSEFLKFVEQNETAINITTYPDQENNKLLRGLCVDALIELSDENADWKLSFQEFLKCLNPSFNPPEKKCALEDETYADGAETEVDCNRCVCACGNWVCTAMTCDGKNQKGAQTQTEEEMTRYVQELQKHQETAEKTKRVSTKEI
Assay: SPR (Biacore T-200), captured antibody, human FSTL1 10 µg/ml; note: time not given here
State the answer as a number, implicitly in RU.

anti-FSTL1 antibody clone #8-8 (chicken-mouse chimeric antibody) (antibody, mouse IgG1, kappa, V domains shown) VH: AVTLDESGGGLQTPGGALSLVCKGSGFTFSSFNMFWVRQAPGKGLEWVAGIGKDGVPKYGAAVDGRATISKDNGQSTMRLQLNNLRAEDTGTYYCAKAAGGCSYGWCGAYTGDIDTWGHGTEVIVSS VL: ASTQPSSVSANPGEAVKITCSGGSGSYYGWYQQKSPGSAPVTVIYNNNQRPSDIPSRFSGSKSGSTATLTITGVQVEDEAVYFCGGYDSSTGHGGIFGAGTTLTVLG : 4.7

// next entry
Q: Write down Dissociation amount (RU) measured for item anti-FSTL1 antibody clone #7-34 (chicken-mouse chimeric antibody) (antibody, mouse IgG1, kappa, V domains shown) VH: AVTLDESGGGLQTPGGGLSLVCKASGFTFSSVTMQWVRQAPGKGLEWVASICSGSSTYYGPAVKGRATISRDNGQNTVRLQLNNLRAEDTATYYCAKIVGRGRWSCTSAAYNIDAWGHGTEVIVSS VL: ASTQPSSVSANPGETVKITCSGGGNNYGWYQQKSPGSAPVTVIYYNNNRPSNIPSRFSGSTSGSTSTLTITGVQAEDEAVYYCGSYEGSTDSGIFGAGTTLTVLG
A: 2.5
